Tested on: A2780
Experiment: Chemosensitization of human A2780 cells after 5 days by MTT assay in presence of MGMT inactivator PaTrin2
Assay type: functional, cell-based
Settings: A2780, 120 h
pIC50: −log10 of the molar value.
experimental endpoint: pIC50

>>> print(df.to_string())
                                  compound  measured_number
0  Cn1nnc2c(C(N)=O)ncn2c1=O [TEMOZOLOMIDE]             5.07

###

System: SNB-19
Assay: Chemosensitization of MGMT-deficient human SNB19 cells after 5 days by MTT assay
Type: functional, cell-based
Settings: SNB-19, 120 h, in the assay text read “Cyquant assay” for “MTT assay”
experimental endpoint: IC50 (µM)

>>> print(df.to_string())
                                   compound  experimental_endpoint  measured_number
0  NC(=O)c1ncn2c(=O)n(CCN(CCn3nnc4c(C(N)=O)ncn4c3=O)c3ccc(F)cc3)nnc12                   IC50               11
1  NC(=O)c1ncn2c(=O)n(CCNc3ccc(Cl)cc3)nnc12                   IC50               77
2  COc1ccc(N(CCn2nnc3c(C(N)=O)ncn3c2=O)CCn2nnc3c(C(N)=O)ncn3c2=O)cc1                   IC50              6.6
3   Cn1nnc2c(C(N)=O)ncn2c1=O [TEMOZOLOMIDE]                   IC50               37

###

Tested on: HCT-116
Test: Chemosensitization of human HCT116 cells expressing p53 after 5 days by MTT assay
Assay type: functional, cell-based
Conditions: HCT-116, 120 h
pIC50: −log10 of the molar value.
Threshold check on pIC50: at or above 5 gives Fulfilled, strictly below gives Not fulfilled.

>>> print(df.to_string())
                                   molecule     class_name
0  Cc1ccc(N(CCn2nnc3c(C(N)=O)ncn3c2=O)CCn2nnc3c(C(N)=O)ncn3c2=O)cc1      Fulfilled
1  NC(=O)c1ncn2c(=O)n(CCCl)nnc12 [MITOZOLOMIDE]  Not fulfilled
2  NC(=O)c1ncn2c(=O)n(CCN(CCn3nnc4c(C(N)=O)ncn4c3=O)c3ccccc3)nnc12      Fulfilled
3  NC(=O)c1ncn2c(=O)n(CCN(CCn3nnc4c(C(N)=O)ncn4c3=O)c3ccc(F)cc3)nnc12  Not fulfilled
4  CN(CCn1nnc2c(C(N)=O)ncn2c1=O)c1ccc(Cl)cc1  Not fulfilled
